The measurements presented in this section are drawn from patent US7271165B2.

tested on: H. flu; format: cell-based, H. influenza; details: H. flu
EXPERIMENTAL_ENDPOINT: MIC (μg/mL) H. flu (µg/mL)

* CCOC(=O)NCC1CCN(c2cc(O)c3nc4c5c6c7c(C)c(O)c5c(=O)c(c-4oc3c2)NC(=O)C(C)=CC=CC(C)C(O)C(C)C(O)C(C)C(OC(C)=O)C(C)C(OC)C=COC(C)(O7)C6=O)CC1 (stereo not drawn) [Compound 51] | 0.25
* COC1C=COC2(C)Oc3c(C)c(O)c4c(=O)c(c5oc6cc(N(C)CCC#N)ccc6nc-5c4c3C2=O)NC(=O)C(C)=CC=CC(C)C(O)C(C)C(O)C(C)C(O)C1C (stereo not drawn) [Compound 127] | 0.12
* CO[C@H]1/C=C/O[C@@]2(C)Oc3c(C)c(O)c4c(=O)c(c5oc6cc(N7CCC(N8CCOCC8)CC7)cc(O)c6nc-5c4c3C2=O)NC(=O)/C(C)=C\C=C\[C@H](C)[C@H](O)[C@@H](C)[C@@H](O)[C@@H](C)[C@H](OC(C)=O)[C@@H]1C [Compound 9] | 2
* CO[C@H]1/C=C/O[C@@]2(C)Oc3c(C)c(O)c4c(=O)c(c5oc6cc(N7C[C@@H]8CCCN[C@@H]8C7)cc(O)c6nc-5c4c3C2=O)NC(=O)/C(C)=C\C=C\[C@H](C)[C@H](O)[C@@H](C)[C@@H](O)[C@@H](C)[C@H](O)[C@@H]1C [Compound 7] | 4
* CO[C@H]1/C=C/O[C@@]2(C)Oc3c(C)c(O)c4c(=O)c(c5oc6cc(N7C[C@H]8CCCN[C@H]8C7)cc(O)c6nc-5c4c3C2=O)NC(=O)/C(C)=C\C=C\[C@H](C)[C@H](O)[C@@H](C)[C@@H](O)[C@@H](C)[C@H](O)[C@@H]1C [Compound 15] | 1
* COC1C=COC2(C)Oc3c(C)c(O)c4c(=O)c(c5oc6cc(N7CCCN(C)CC7)cc(O)c6nc-5c4c3C2=O)NC(=O)C(C)=CC=CC(C)C(O)C(C)C(O)C(C)C(O)C1C (stereo not drawn) [Compound 121] | 0.25
* COC1C=COC2(C)Oc3c(C)c(O)c4c(=O)c(c5oc6cc(N7CCN(C)CC7)cc(O)c6nc-5c4c3C2=O)NC(=O)C(C)=CC=CC(C)C(O)C(C)C(O)C(C)C(O)C1C (stereo not drawn) [Compound 82] | 0.25
* CO[C@H]1/C=C/O[C@@]2(C)Oc3c(C)c(O)c4c(=O)c(c5oc6cc(N7CCC(NC(=O)OC(C)C)CC7)cc(O)c6nc-5c4c3C2=O)NC(=O)/C(C)=C\C=C\[C@H](C)[C@H](O)[C@@H](C)[C@@H](O)[C@@H](C)[C@H](O)[C@@H]1C [Compound 29] | 1

====

tested on: E. faecalis; experiment: MIC assay, E. faecalis; format: cell-based, Enterococcus faecalis
EXPERIMENTAL_ENDPOINT: MIC (μg/mL) E. faecalis (µg/mL)

* C=CCc1cc(C)cc2nc3c4c5c6c(C)c(O)c4c(=O)c(c-3oc12)NC(=O)C(C)=CC=CC(C)C(O)C(C)C(O)C(C)C(O)C(C)C(OC)C=COC(C)(O6)C5=O (centres unmarked) | 2
* CO[C@H]1/C=C/O[C@@]2(C)Oc3c(C)c(O)c4c(=O)c(c5oc6cc(N7CC8CCC(C7)N8)cc(O)c6nc-5c4c3C2=O)NC(=O)/C(C)=C\C=C\[C@H](C)[C@H](O)[C@@H](C)[C@@H](O)[C@@H](C)[C@H](O)[C@@H]1C | 0.12
* CCOC(=O)NC1CCN(c2cc(O)c3nc4c5c6c7c(C)c(O)c5c(=O)c(c-4oc3c2)NC(=O)/C(C)=C\C=C\[C@H](C)[C@H](O)[C@@H](C)[C@@H](O)[C@@H](C)[C@H](O)[C@H](C)[C@@H](OC)/C=C/O[C@@](C)(O7)C6=O)CC1 | 0.12
* CCOc1c(N2CCN(CC3CC3)CC2)ccc2nc3c4c5c6c(C)c(O)c4c(=O)c(c-3oc12)NC(=O)/C(C)=C\C=C\[C@H](C)[C@H](O)[C@@H](C)[C@@H](O)[C@@H](C)[C@H](O)[C@H](C)[C@@H](OC)/C=C/O[C@@](C)(O6)C5=O | 0.5
* CCOC(=O)N1CCCC2CN(c3cc(O)c4nc5c6c7c8c(C)c(O)c6c(=O)c(c-5oc4c3)NC(=O)C(C)=CC=CC(C)C(O)C(C)C(O)C(C)C(O)C(C)C(OC)C=COC(C)(O8)C7=O)CC21 (mixture of isomers) | 2

====

system: E. faecalis; assay: MIC assay, E. faecalis; format: cell-based, Enterococcus faecalis
# key: entry, value: MIC (μg/mL) E. faecalis
EXPERIMENTAL_ENDPOINT: MIC (μg/mL) E. faecalis (µg/mL)

- COC1C=COC2(C)Oc3c(C)c(O)c4c(=O)c(c5oc6cc(N7CC8CCCN(C(C)=O)C8C7)cc(O)c6nc-5c4c3C2=O)NC(=O)C(C)=CC=CC(C)C(O)C(C)C(O)C(C)C(OC(C)=O)C1C (stereo not shown): 1
- CCNC(=O)NC1CCN(c2cc(O)c3nc4c5c6c7c(C)c(O)c5c(=O)c(c-4oc3c2)NC(=O)/C(C)=C\C=C\[C@H](C)[C@H](O)[C@@H](C)[C@@H](O)[C@@H](C)[C@H](OC(C)=O)[C@H](C)[C@@H](OC)/C=C/O[C@@](C)(O7)C6=O)CC1: 2
- COC1C=COC2(C)Oc3c(C)c(O)c4c(=O)c(c5oc6cc(N7CCC(F)C7)ccc6nc-5c4c3C2=O)NC(=O)C(C)=CC=CC(C)C(O)C(C)C(O)C(C)C(O)C1C (stereo not shown): 0.5
- COC1C=COC2(C)Oc3c(C)c(O)c4c(=O)c(c5oc6cc(N(C)CC(C)C)cc(O)c6nc-5c4c3C2=O)NC(=O)C(C)=CC=CC(C)C(O)C(C)C(O)C(C)C(O)C1C (stereo not shown): 0.5
- COC1C=COC2(C)Oc3c(C)c(O)c4c(=O)c(c5oc6cc(N7CCCN(C)CC7)cc(O)c6nc-5c4c3C2=O)NC(=O)C(C)=CC=CC(C)C(O)C(C)C(O)C(C)C(O)C1C (stereo not shown): 0.03
- COC1C=COC2(C)Oc3c(C)c(O)c4c(=O)c(c5sc6cc(N7CC(C)NC(C)C7)ccc6nc-5c4c3C2=O)NC(=O)C(C)=CC=CC(C)C(O)C(C)C(O)C(C)C(OC(C)=O)C1C (stereo not shown): 0.12
- COC1C=COC2(C)Oc3c(C)c(O)c4c(=O)c(c5oc6cc(N7CC8CCCN(C)C8C7)cc(O)c6nc-5c4c3C2=O)NC(=O)C(C)=CC=CC(C)C(O)C(C)C(O)C(C)C(OC(C)=O)C1C (stereo not shown): 1
